Sourced from patent US20030068675

testedSystem: ZFP SBS#1300 (synthetic)
Sequence (chain, as listed by the source): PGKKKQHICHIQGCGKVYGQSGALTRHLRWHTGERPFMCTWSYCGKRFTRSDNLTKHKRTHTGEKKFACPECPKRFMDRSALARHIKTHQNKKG
experimentDescription: EMSA
assaySetup: tags: MBP fusion
reportedMetric: pKd
As a rule, pKd stands for the negative log10 of the concentration, concentration in M.

[in] Reported pKd for GTCTAGGTA (dsDNA) DNA 1: GTCTAGGTA DNA 2: TACCTAGAC : what is it?
[out] 9.34
